# test-details: soluble on expression in E. coli; label from the status in PepcDB or PDB records

sequence-code: MTIKLVATDMDGTFLDGNGRFDMDRLKSLLVSYKEKGIYFAVASGRGFLSLEKLFAGVRDDIIFIAENGSLVEYQGQDLYEATMSRDFYLATFEKLKTSPYVDINKLLLTGKKGSYVLDTVDETYLKVSQHYNENIQKVASLEDITDDIFKFTTNFTEETLEDGEAWVNENVPGVKAMTTGFESIDIVLDYVDKGVAIVELVKKLGITMDQVMAFGDNLNDLHMMQVVGHPVAPENARPEILELAKTVIGHHKERSVIAYMEGL
soluble on expression in E. coli: not soluble
--
sequence-code: MAAPVDLELKKAFAELQAKMVDTQQKVKLADLQIEQLSRVKKHANLTHGEITSLPESTRMFEGAGRMFILQSKGEISNQLLEKQKTADDKIKELEQKKTYLERSVKDAEDNIREMLMSRRAQ
soluble on expression in E. coli: not soluble
--
sequence-code: MGSDKIHHHHHHMTAEDTYKTIVEPSEGIYTEKRSKFIAIALPVRTLDEIKAHLETYQKKYYDARHVCYAYMLGAARKDFRANDNGEPSGTAGKPILGQINSNELTDILIIVVRYFGGIKLGTSGLIVAYKAAAAEAISAATIIEKTVDEEVTVMFEYPFMNDIMRIVKEEEPEILSQSYDMDCSMTLCIRRSMMPKLRARLEKVETARILDEE
soluble on expression in E. coli: not soluble

###

# test-details: soluble on expression in E. coli; label from the status in PepcDB or PDB records
measured-attribute: soluble on expression in E. coli

sequence-code: MKQTPPLISFITICYNGLDDTCMLIESLRDTISSVSYEIIVVDNASRQDEASLIQERYPFVRTLRSEKNLGFSGGNNLGIQIAQGKYLFLINNDTYLTEDGLPALIERLESDPRIGAVSPKIRFAFPPQSIQFAGYTKLSRYTMRNKALGMGCPDDGTFDTPRPSAYLHGAALMLKREVIWKAGLMPEIYFLYYEELDWCTSMTRAGYQLWYEPRCTIFHKESQSTGRQSPLRTFYMMRNRMLYAWRNLPGMERCLAIAYQMLIVAPKDSLCFVLKGEPKLAKAVWHGVKGFWKLCLEHHHHHH
measured-attribute: soluble on expression in E. coli
observed-value: soluble
//
sequence-code: MGSSHHHHHHSSGLVPRGSHASMAAEMDWDKTVGAAEDVRRIFEHIPAILVGLEGPDHRFVAVNAAYRGFSPLLDTVGQPAREVYPELEGQQIYEMLDRVYQTGEPQSGSEWRLQTDYDGSGVEERYFDFVVTPRRRADGSIEGVQLIVDDVTSRVRARQAAEARVEELSERYRNVRDSATVMQQ
measured-attribute: soluble on expression in E. coli
observed-value: soluble
//
sequence-code: MNWRAASAPPRSSPGLTSTCSRAAHWRDRGGAAAHAVLANVPQGRTLRDDAADLGWKPNHKFKGKLILTAPDAMPVDLNGVTITIAGPLQDELQALQDMHDQWLRQRKADPTRPPASAMLAAFVDKSVPNLSSIVLLAECGGKTMLLTGDARGDKIIEGLETTGKLAKDETLHVDILKVPHHGSDNNMETSFFERVTADHYVFSGNGDYGNPERATLQMLLDARGVAEDFTIHLTYPIEEIDAGREADWVKQQAKEAGRAKPPKGGVRPDWSAEEQGLVAFFANNPELAAHLIDLLDKAVVLEHHHHHH
measured-attribute: soluble on expression in E. coli
observed-value: not soluble
//
sequence-code: MNYSRIAEAIEYIRAHYKEQPGLDEVAEKVHLSPFHFQRIFTEWAGLEHHHHHH
measured-attribute: soluble on expression in E. coli
observed-value: not soluble
//
sequence-code: GQDRSPIETQNVETVLRLFDEGWGAQDGWRDVWRETMTPGFRSIFHSNQAVEGIEQAIAFNAVLFEGFPRLEVVVENVTVEGDNVVVQARLTGAQDGPFLGVPPSGQMVDVPDVTLFTLADGQVIEMRYFTDLLAVMTAISAPPEN
measured-attribute: soluble on expression in E. coli
observed-value: soluble
//
sequence-code: MIRKHSATLHGHRTSISLEDAFWDELKIIAERRKVSFAALLAEIDDSRPADSNLSSSLRVYVLNWLKTR
measured-attribute: soluble on expression in E. coli
observed-value: not soluble

# query: soluble on expression in E. coli of entry MAHHHHHHMESINRNNNINKNEIDNKINNNNNMDVPIEGNEKSQEGDIIGQFGVGFYSSFVVSNKVEVFTRSYDNNSSKGYHWVSYGNGTFTLKEVDNIPKGTKIICHLKDSCKEFSNIQNVQKIVEKFSSFINFPVYVLKKKKILQT
soluble

Reported soluble on expression in E. coli for REGMNTIARNLGITCSADIGLISIEYTCFSNNLSYTQVLSLPKTGVNTDKLDQMERFVKEFGNDCSSLTIRQIHNKLDTVQRK : what is it?
not soluble

What does the record list as soluble on expression in E. coli for MSLYKIDFSKGLVPAILQDNQTKQVLMLGYMNQEAFDKTIEDGVVCFYSRSKQRLWTKGETSGHTQLVKDIHVDCDNDTILIDVIPNGPTCHTGSQSCFNTEVPFSVQTLAQTVQDSAQSNNEKSYTKYLLTEGIEKITKKYGEEAFEVVIEAIKGDKKAFVSEVADELYHLFVLMHALGVDFSEIEAELARRHHKRNNFKGERQNIEQWEGHHHHHH ?
soluble

###

# test-details: soluble on expression in E. coli; label from the status in PepcDB or PDB records
measured-attribute: soluble on expression in E. coli

sequence-code: GLVLPHTEFQPAPKQDSSPHLTSQRPVDMVQLLKKYPIVWQGLLALKNDTAAVQLHFVSGNNVLAHRSLPLSEGGPPLRIAQRMRLEATQLEGVARRMTVETDYCLLLALPCGRDQEDVVSQTESLKAAFITYLQAKQAAGIINVPNPGSNQPAYVLQIFPPCEFSESHLSRLAPDLLASISNISPHLMIVIASV
measured-attribute: soluble on expression in E. coli
observed-value: soluble
--
sequence-code: MNGIKTGLGITPGEHIISADSALSRNIRQCFCLSCHGRLILQTDAQGAWFEHDLYALSEQQKAACVVLNPEKSHPYIEDMEMFLSPLPVVLEWHCMMCEQFFHGKKFCEACGTGIYCRAVCTKSVYSYQPDLFQDCGGAST
measured-attribute: soluble on expression in E. coli
observed-value: soluble
--
sequence-code: MGSDKIHHHHHHMHFTPALKPGKLLKRYKRFLADVQLEDGSEITVHCPNTGSMRNCLFPGETLWFSTSSNTKRKYAHTWELMTTPTGALIGIHSGNANALVEEALNKGIITELTGYDSLRREVKYGDENSRIDILLECAQKTACYIEVKSCTLQENGQGYFPDAVSLRGQKHLRELMHMASLGHRAVLLFVVQHTDIMSVAPAAHIDPEYANLLKKSVLSGVEVLAYRCEISPSEIHLAQSCPVRV
measured-attribute: soluble on expression in E. coli
observed-value: not soluble
--
sequence-code: MGSDKIHHHHHHMNTLKKITNNISKVIIGKDESIELAAIALIAKGHILLEDVPGTGKTTLAKSLAKSVDAKFQRIQFTADTLPGDVIGLEYFNVKESDFKTRLGPIFANIVLVDEINRAVPRTQSSLLEVMEERTVTIAKQTHSLPEPFLVIATQNPLESAGTFPLPDAQLDRFLLTIRQGYPTREAEKEMMNRFQMNDPLETLHSIISSEEIITMQKRAREVLVGNDVQDYLLEIIEATRKHELIEIGVSPRGTLAFMRAIQARAILNERDYCTPDDIKQLAASICTHRLTLTIEGEMKTTKEQIMKEILHTIDVPVENVR
measured-attribute: soluble on expression in E. coli
observed-value: not soluble
--
sequence-code: MEQSVANLVDMRDVSFTRGNRCIFDNISLTVPRGKITAIMGPSGIGKTTLLRLIGGQIAPDHGEILFDGENIPAMSRSRLYTVRKRMSMLFQSGALFTDMNVFDNVAYPLREHTQLPAPLLHSTVMMKLEAVGLRGAAKLMPSELSGGMARRAALARAIALEPDLIMFDEPFVGQDPITMGVLVKLISELNSALGVTCVVVSHDVPEVLSIADHAWILADKKIVAHGSAQALQANPDPRVRQFLDGIADGPVPFRYPAGDYHADLLPGS
measured-attribute: soluble on expression in E. coli
observed-value: not soluble

What does the record list as soluble on expression in E. coli for MATKARVMYDFAAEPGNNELTVTEGEIITVTNPNVGGGWLEGKNNKGEQGLVPTDYVEILPNDGKDPFSC ?
soluble

soluble on expression in E. coli for MKNNLPIIALDFASAEETLAFLAPFQQEPLFVKVGMELFYQEGPSIVKQLKERNCELFLDLKLHDIPTTVNKAMKRLASLGVDLVNVHAAGGKKMMQAALEGLEEGTPAGKKRPSLIAVTQLTSTSEQIMKDELLIEKSLIDTVVHYSKQAEESGLDGVVCSVHEAKAIYQAVSPSFLTVTPGIRMSEDAANDQVRVATPAIAREKGSSAIVVGRSITKAEDPVKAYKAVRLEWEGIKS ?
soluble

Values compiled from the DeepSol protein solubility set.
